Target: endogenous human glucagon-like peptide 1 receptor (GLP-1R) (Homo sapiens)
Construct: endogenous human glucagon-like peptide 1 receptor (GLP-1R) in a pancreatic insulinoma cell line
Sequence (P43220 24-463): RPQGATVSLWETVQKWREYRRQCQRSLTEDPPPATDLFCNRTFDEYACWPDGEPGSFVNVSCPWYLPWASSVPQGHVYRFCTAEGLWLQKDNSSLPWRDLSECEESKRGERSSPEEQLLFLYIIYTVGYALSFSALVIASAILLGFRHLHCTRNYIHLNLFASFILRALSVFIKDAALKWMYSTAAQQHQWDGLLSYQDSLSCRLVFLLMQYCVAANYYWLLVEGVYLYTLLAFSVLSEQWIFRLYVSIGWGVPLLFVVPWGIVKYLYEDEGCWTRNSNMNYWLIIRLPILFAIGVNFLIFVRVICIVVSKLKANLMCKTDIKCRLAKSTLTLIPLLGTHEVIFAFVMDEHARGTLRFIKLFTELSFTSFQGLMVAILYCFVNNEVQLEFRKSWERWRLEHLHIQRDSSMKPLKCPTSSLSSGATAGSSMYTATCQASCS
Test: EndoC cAMP Accumulation Assay
Conditions: EndoC-βH1 human pancreatic β cell line; HTRF cAMP assay
From the text: EndoC cAMP Accumulation Assay A HTRF (Homogeneous Time-Resolved Fluorescence) cAMP assay (cAMP Gs dynamic kit; CisoBio Cat #62AM4PEJ) was used to identify agonists of the endogenous human glucagon-like peptide 1 receptor (GLP-1R) in a pancreatic insulinoma cell line (EndoC-βH1). […] EndoC-βH1 cells have detectable GLP-1R mRNA as detected by qPCR^1. […] The detection kit is intended for the direct quantitative determination of cAMP. […]
pEC50: −log10 of the molar value.
Returns one of criterion met or criterion not met; criterion met when pEC50 is >= 7.

1. C[C@]1(c2ccc(Cl)cc2F)Oc2cccc(N3CCN(Cc4nc5c(F)cc(C(=O)O)cc5n4Cc4cccnc4)[C@H]4COC[C@H]43)c2O1 (single isomer, unassigned) [Example 13b] : criterion not met
2. C[C@]1(c2ccc(Cl)cc2F)Oc2cccc(N3CCN(Cc4nc5ccc(C(=O)O)cc5n4C[C@@H]4CCO4)[C@H]4COC[C@H]43)c2O1 (single isomer, unassigned) [Example 6b] : criterion not met
3. C[C@]1(c2ccc(Cl)cn2)Oc2cccc(N3CCN(Cc4nc5c(F)cc(C(=O)O)cc5n4CC4(C#N)CC4)[C@H]4COC[C@H]43)c2O1 (single isomer, unassigned) [Example 22b] : criterion not met
4. C[C@]1(c2ccc(Cl)cc2F)Oc2cccc(N3CCN(Cc4nc5ccc(C(=O)O)cc5n4C[C@@H]4CCO4)[C@H]4COC[C@H]43)c2O1 (single isomer, unassigned) [Example 6d] : criterion not met
5. C[C@]1(c2ccc(Cl)cn2)Oc2cccc(N3CCN(Cc4nc5c(F)cc(C(=O)O)cc5n4CC4(C#N)CC4)[C@H]4COC[C@H]43)c2O1 (single isomer, unassigned) [Example 22c] : criterion not met
6. C[C@]1(c2ccc(Cl)cn2)Oc2cccc(N3CCN(Cc4nc5ccc(C(=O)O)cc5n4CC4(C#N)CC4)[C@H]4COC[C@H]43)c2O1 (single isomer, unassigned) : criterion met
7. C[C@]1(c2ccc(Cl)cn2)Oc2cccc(N3CCN(Cc4nc5ccc(C(=O)O)cc5n4C[C@@H]4CCCO4)[C@H]4COC[C@H]43)c2O1 (single isomer, unassigned) [Example 8b] : criterion not met
8. COc1cc(C(=O)O)cc2c1nc(CN1CCN(c3cccc4c3OC(C)(c3ccc(Cl)cc3F)O4)[C@@H]3COC[C@@H]31)n2C[C@@H]1CCCO1 (relative stereo) : criterion met
9. C[C@]1(c2ccc(Cl)cn2)Oc2cccc(N3CCN(Cc4nc5c(F)cc(C(=O)O)cc5n4CC4(C#N)CC4)[C@H]4COC[C@H]43)c2O1 (single isomer, unassigned) [Example 22a] : criterion met
10. C[C@]1(c2ccc(Cl)cc2F)Oc2cccc(N3CCN(Cc4nc5c(Cl)cc(C(=O)O)cc5n4C[C@@H]4CCO4)[C@H]4COC[C@H]43)c2O1 (single isomer, unassigned) [Example 15c] : criterion not met

---

target: human GLP-1R receptor (Homo sapiens, UniProt P43220, L260F); test: CHOK1 GLP-1R cAMP Assay; conditions: CHO-K1 cell line stably expressing human GLP-1R; HTRF cAMP detection
Sequence (P43220 24-463 L260F): as the sequence (P43220 24-463) above, with L237F counted along it
parameter: EC50 (nM)

1. COc1cc(C(=O)O)cc2c1nc(CN1CCN(c3cccc4c3O[C@@](C)(c3ccc(Cl)cc3F)O4)[C@@H]3COC[C@@H]31)n2C[C@@H]1CCO1 (single isomer, unassigned) [Example 3c] : 150
2. C[C@@]1(c2ccc(Cl)cc2F)Oc2cccc(N3CCN(Cc4nc5c(F)cc(C(=O)O)cc5n4Cc4cccnc4)[C@@H]4COC[C@@H]43)c2O1 (relative stereo) [Example 13c] : 730
3. C[C@]1(c2ccc(Cl)cn2)Oc2cccc(N3CCN(Cc4nc5c(Cl)cc(C(=O)O)cc5n4CCn4cccn4)[C@H]4COC[C@H]43)c2O1 (single isomer, unassigned) : 81
4. C[C@]1(c2ccc(Cl)cn2)Oc2cccc(N3CCN(Cc4nc5c(Cl)cc(C(=O)O)cc5n4C[C@@H]4CCO4)[C@H]4COC[C@H]43)c2O1 (single isomer, unassigned) [Example 14d] : 190
5. C[C@]1(c2ccc(Cl)cc2F)Oc2cccc(N3CCN(Cc4nc5c(F)cc(C(=O)O)cc5n4C[C@@H]4CCO4)[C@H]4COC[C@H]43)c2O1 (single isomer, unassigned) [Example 16b] : 120
